Target: Mitogen-activated protein kinase kinase kinase 13 (Homo sapiens)
Sequence (O43283 whole entry, the tested form may be a part): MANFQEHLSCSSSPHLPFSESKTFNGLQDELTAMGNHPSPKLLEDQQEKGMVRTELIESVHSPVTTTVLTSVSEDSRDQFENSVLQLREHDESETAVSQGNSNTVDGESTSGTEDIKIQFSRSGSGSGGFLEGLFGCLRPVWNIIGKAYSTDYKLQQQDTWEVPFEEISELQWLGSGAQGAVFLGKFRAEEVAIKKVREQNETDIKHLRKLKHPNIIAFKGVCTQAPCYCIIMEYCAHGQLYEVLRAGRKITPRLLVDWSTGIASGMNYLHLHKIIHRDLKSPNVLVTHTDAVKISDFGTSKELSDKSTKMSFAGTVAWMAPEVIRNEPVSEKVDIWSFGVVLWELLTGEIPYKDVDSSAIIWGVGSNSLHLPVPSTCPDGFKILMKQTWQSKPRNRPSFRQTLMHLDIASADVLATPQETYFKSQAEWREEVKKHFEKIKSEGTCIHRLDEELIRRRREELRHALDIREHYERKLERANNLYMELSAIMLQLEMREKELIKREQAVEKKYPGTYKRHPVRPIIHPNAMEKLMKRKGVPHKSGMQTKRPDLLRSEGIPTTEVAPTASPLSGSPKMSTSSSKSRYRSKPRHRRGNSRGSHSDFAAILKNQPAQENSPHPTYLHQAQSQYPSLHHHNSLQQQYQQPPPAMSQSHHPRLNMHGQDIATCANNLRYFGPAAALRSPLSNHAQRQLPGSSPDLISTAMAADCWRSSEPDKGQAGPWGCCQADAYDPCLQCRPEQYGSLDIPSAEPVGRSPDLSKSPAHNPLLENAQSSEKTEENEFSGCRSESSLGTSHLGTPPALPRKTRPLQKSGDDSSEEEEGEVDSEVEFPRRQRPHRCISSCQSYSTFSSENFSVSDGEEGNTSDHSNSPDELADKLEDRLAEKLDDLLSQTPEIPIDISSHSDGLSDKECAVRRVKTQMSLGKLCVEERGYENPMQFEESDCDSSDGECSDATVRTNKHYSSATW
Test: Binding affinity to full length wild type human LZK (M1 to W966 residues) expressed in mammalian cells by KINOMEscan assay
pKd: −log10 of the molar value.
attribute measured: pKd

- CC(C)n1nc(-c2cnc(N)c(OC(F)(F)F)c2)cc1[C@H]1[C@@H]2CN(C3COC3)C[C@@H]21: 6.34
- Nc1ncc(-c2cc([C@H]3[C@@H]4CN(C5COC5)C[C@@H]43)n(CC3CC3)n2)cc1C(F)(F)F: 6.92

* * *

Target: Mitogen-activated protein kinase kinase kinase 12 (Homo sapiens, UniProt Q12852)
Assay: Inhibition of doxycycline inducible human DLK transfected in HEK293 cells assessed as JNK phosphorylation after […] by Hoechst-33342 staining-based assay
Format: cell-based
The following compounds are listed with their measured IC50 values.
attribute measured: IC50 (nM)

* COCCN1C[C@@H]2[C@H](C1)[C@H]2c1cc(-c2cnc(N)c(C(F)(F)F)c2)nn1C(C)C | 265
* Cn1nc(-c2cnc(N)c(C(F)(F)F)c2)cc1[C@H]1[C@@H]2CN(C3COC3)C[C@@H]21 | 1800
* CC(C)n1nc(-c2cnc(N)c(C(F)(F)F)c2)cc1C1CCN(C2COC2)CC1 | 1900
* CC(C)n1nc(-c2cnc(N)c(OC(F)F)c2)cc1[C@H]1[C@@H]2CN(C3COC3)C[C@@H]21 | 328
* CC(C)n1nc(-c2cnc(N)c(Cl)c2)cc1C1CCN(C2COC2)CC1 | 1700
* Cn1nc(-c2cnc(N)c(OC(F)(F)F)c2)cc1[C@H]1[C@@H]2CN(C3COC3)C[C@@H]21 | 1300
* CC(C)n1nc(-c2cnc(N)c(C(F)F)c2)cc1[C@H]1[C@@H]2CN(C3COC3)C[C@@H]21 | 1200
* Nc1ncc(-c2cc([C@H]3[C@@H]4CN(C5COC5)C[C@@H]43)n(CC(F)(F)F)n2)cc1C(F)(F)F | 180

* * *

The following compounds are listed with their measured pKd values.
Target: Mitogen-activated protein kinase kinase kinase 12 (Homo sapiens)
Assay: Binding affinity to full length wild type human DLK (M1 to P859 residues) expressed in mammalian cells by KINOMEscan assay
pKd: −log10 of the molar value.
attribute measured: pKd

- Nc1ncc(-c2cc([C@H]3[C@@H]4CN(C5COC5)C[C@@H]43)n(CC3CC3)n2)cc1C(F)(F)F: 8.29
- CC(C)n1nc(-c2cnc(N)c(OC(F)(F)F)c2)cc1[C@H]1[C@@H]2CN(C3COC3)C[C@@H]21: 7.96

* * *

Target: Macrophage colony-stimulating factor 1 receptor (Homo sapiens)
Sequence (P07333 whole entry, the tested form may be a part): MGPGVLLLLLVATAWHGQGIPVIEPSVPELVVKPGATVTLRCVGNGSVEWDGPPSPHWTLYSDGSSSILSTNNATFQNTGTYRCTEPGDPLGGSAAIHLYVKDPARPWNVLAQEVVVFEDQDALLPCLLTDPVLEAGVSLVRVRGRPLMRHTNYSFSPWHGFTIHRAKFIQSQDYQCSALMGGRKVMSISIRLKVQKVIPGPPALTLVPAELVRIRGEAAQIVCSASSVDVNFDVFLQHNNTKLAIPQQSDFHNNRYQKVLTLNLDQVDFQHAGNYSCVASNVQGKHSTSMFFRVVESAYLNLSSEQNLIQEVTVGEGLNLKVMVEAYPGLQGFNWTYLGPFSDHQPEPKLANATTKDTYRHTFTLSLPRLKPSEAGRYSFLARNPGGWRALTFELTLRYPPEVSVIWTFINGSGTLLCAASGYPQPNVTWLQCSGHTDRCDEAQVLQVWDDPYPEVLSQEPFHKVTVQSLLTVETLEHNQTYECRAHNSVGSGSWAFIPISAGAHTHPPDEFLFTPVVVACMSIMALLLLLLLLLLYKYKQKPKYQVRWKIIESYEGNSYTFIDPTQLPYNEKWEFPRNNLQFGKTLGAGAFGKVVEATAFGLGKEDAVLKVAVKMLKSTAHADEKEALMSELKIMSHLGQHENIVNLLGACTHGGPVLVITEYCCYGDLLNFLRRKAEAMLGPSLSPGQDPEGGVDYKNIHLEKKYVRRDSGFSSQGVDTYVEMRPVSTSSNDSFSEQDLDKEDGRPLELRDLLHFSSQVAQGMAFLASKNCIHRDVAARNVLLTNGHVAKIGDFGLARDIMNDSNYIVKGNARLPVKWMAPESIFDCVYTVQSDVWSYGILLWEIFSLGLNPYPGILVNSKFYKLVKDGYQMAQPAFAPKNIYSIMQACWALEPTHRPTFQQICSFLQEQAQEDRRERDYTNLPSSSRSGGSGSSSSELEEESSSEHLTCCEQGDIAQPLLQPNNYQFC
Assay: Inhibition of recombinant His-tagged human CSF1R cytoplasmic domain (538 to 910 residues) expressed in baculovirus expression system by FRET assay
attribute measured: IC50 (nM)

* Nc1ncc(-c2cc([C@H]3[C@@H]4CN(C5COC5)C[C@@H]43)n(CC3CC3)n2)cc1C(F)(F)F | 1220

* * *

Target: Mitogen-activated protein kinase kinase kinase 12 (Homo sapiens, UniProt Q12852)
Sequence (Q12852 whole entry): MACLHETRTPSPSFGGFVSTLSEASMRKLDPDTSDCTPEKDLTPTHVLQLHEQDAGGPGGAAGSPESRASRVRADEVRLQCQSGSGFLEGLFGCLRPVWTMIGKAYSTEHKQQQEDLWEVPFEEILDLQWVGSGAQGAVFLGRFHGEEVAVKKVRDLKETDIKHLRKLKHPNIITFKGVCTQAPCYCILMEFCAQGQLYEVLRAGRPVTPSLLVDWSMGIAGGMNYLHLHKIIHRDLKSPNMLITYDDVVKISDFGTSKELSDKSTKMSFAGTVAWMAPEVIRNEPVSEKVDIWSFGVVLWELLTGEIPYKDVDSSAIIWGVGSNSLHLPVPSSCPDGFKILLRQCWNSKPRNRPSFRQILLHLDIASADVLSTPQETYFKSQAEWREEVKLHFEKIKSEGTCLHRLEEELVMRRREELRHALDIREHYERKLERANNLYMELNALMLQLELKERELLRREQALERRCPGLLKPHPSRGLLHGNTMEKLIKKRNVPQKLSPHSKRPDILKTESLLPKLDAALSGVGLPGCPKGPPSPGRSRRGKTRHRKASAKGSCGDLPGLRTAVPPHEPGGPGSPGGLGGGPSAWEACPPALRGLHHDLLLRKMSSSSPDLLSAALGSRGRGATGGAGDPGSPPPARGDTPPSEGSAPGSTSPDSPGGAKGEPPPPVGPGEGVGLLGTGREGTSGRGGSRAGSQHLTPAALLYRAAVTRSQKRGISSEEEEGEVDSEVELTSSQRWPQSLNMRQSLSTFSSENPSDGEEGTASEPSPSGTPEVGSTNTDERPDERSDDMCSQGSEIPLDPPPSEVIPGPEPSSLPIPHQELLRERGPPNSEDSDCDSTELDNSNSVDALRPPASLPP
Experiment: Inhibition of doxycycline inducible human DLK transfected in HEK293 cells assessed as JNK phosphorylation after […] by Hoechst-33342 staining-based assay
Type: cell-based
pIC50: −log10 of the molar value.
attribute measured: pIC50

- CC(=O)N1C[C@@H]2[C@H](C1)[C@H]2c1cc(-c2cnc(N)c(C(F)(F)F)c2)nn1C(C)C: 6.52
- CC(C)n1nc(-c2cnc(N)c(C(F)(F)F)c2)cc1[C@H]1[C@@H]2CN(CC3COC3)C[C@@H]21: 6.56
- CC(O)CN1C[C@@H]2[C@H](C1)[C@H]2c1cc(-c2cnc(N)c(C(F)(F)F)c2)nn1C(C)C (stereo partly drawn): 6.68
- COc1cc(-c2cc([C@H]3[C@@H]4CN(C5COC5)C[C@@H]43)n(C(C)C)n2)cnc1N: 6.06
- CC(C)(O)Cn1nc(-c2cnc(N)c(C(F)(F)F)c2)cc1[C@H]1[C@@H]2CN(C3COC3)C[C@@H]21: 6.08
- CC(C)n1nc(-c2cnc3[nH]cc(F)c3c2)cc1C1CCN(C2COC2)CC1: 5.55
- Nc1ncc(-c2cc([C@H]3[C@@H]4CN(C5COC5)C[C@@H]43)n(CC3CC3)n2)cc1OC(F)(F)F: 6.52
- CC(C)Cn1nc(-c2cnc(N)c(C(F)(F)F)c2)cc1[C@H]1[C@@H]2CN(C3COC3)C[C@@H]21: 7.00

* * *

The following compounds are listed with their measured pIC50 values.
Biological target: Mitogen-activated protein kinase kinase kinase 11 (Homo sapiens)
Sequence (Q16584 whole entry): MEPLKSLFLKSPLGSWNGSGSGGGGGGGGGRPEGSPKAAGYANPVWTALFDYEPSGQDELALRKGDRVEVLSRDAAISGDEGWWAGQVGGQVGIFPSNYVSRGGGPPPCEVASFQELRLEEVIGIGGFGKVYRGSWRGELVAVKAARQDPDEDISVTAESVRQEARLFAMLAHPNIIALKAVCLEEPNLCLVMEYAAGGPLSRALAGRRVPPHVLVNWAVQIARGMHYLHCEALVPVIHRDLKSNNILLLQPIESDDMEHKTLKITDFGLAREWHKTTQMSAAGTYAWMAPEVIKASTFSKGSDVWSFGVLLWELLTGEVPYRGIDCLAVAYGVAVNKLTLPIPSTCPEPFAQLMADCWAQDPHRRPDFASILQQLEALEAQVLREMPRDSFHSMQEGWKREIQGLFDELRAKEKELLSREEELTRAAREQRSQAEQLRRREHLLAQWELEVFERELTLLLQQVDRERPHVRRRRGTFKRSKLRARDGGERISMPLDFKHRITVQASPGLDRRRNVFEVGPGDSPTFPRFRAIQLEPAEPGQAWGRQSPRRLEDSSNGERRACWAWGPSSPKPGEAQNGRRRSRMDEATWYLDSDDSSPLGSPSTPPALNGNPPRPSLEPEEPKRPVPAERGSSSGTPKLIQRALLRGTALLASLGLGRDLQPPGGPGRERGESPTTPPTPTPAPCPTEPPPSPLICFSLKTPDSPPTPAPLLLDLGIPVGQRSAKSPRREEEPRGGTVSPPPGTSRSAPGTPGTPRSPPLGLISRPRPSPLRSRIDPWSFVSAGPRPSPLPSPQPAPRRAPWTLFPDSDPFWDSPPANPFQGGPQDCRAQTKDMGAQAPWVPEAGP
Assay: Inhibition of recombinant human full length GST-tagged MLK3 expressed in baculovirus expression system by FRET assay
pIC50: −log10 of the molar value.
attribute measured: pIC50

* CC(C)n1nc(-c2cnc(N)c(OC(F)(F)F)c2)cc1[C@H]1[C@@H]2CN(C3COC3)C[C@@H]21 | < 5.00
* Nc1ncc(-c2cc([C@H]3[C@@H]4CN(C5COC5)C[C@@H]43)n(CC3CC3)n2)cc1C(F)(F)F | < 5.00

* * *

Target: Mitogen-activated protein kinase kinase kinase 12 (Homo sapiens)
Sequence (Q12852 whole entry): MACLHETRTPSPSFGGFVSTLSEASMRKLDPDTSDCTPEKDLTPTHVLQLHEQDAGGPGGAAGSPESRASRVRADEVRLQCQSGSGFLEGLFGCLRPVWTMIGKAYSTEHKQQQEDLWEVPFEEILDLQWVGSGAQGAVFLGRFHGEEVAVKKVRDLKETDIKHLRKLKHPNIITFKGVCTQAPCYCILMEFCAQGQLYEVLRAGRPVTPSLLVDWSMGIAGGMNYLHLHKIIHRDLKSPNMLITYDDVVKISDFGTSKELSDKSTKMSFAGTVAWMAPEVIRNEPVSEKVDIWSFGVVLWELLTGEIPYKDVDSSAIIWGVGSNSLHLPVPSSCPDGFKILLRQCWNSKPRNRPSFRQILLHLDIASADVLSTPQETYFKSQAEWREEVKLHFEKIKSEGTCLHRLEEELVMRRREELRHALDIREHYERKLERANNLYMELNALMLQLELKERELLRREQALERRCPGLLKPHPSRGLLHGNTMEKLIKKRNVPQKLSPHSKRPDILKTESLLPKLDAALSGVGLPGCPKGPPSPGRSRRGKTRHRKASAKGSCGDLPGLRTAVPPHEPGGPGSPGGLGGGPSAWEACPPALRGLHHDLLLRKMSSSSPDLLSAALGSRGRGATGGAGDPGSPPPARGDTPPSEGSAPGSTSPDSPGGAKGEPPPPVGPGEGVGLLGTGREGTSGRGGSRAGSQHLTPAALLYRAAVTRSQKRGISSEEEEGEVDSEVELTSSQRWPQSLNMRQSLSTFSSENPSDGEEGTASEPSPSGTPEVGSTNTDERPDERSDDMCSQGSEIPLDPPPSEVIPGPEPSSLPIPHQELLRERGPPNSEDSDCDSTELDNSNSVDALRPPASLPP
Test: Inhibition of doxycycline inducible human DLK transfected in HEK293 cells assessed as JNK phosphorylation after […] in presence of 10% bovine serum by Hoechst-33342 staining-based assay
Assay type: cell-based
attribute measured: IC50 (nM)

* CC(C)n1nc(-c2cnc(N)c(OC(F)(F)F)c2)cc1[C@H]1[C@@H]2CN(C3COC3)C[C@@H]21 | 129
